Items are presented alongside their recorded pIC50.
# system_under_test: Human autotaxin enzyme (Homo sapiens)
# Construct: purchased R&D System
# protocol_details: Evaluation of autotaxin inhibitor, 18:0 Lyso PC / choline assay (Test Example 2)
# Assay type: biochemical
# condition_notes: human autotaxin enzyme, 18:0 Lyso PC substrate, choline assay, room temperature 2 hours; read-out: Inhibitor activity (IC50)
pIC50: −log10 of the molar value.

Worked set:
                                   molecule                      system_under_test           val
0  O=C(NCc1ccc(O)nc1)c1cccc(Cn2c(CCCC(F)(F)F)nc(-c3ccc(Cl)cc3)cc2=O)c1  Human autotaxin enzyme (Homo sapiens)  6.00 to 7.00
1  CCCCCc1nc(-c2ccc(Cl)cc2)cc(=O)n1CC(=O)N(CCC(=O)O)C1CCCC1  Human autotaxin enzyme (Homo sapiens)  7.00 to 8.00
2  COC(=O)Nc1cc(Cl)ccc1-c1cc(=O)n(CC(=O)NC2(c3nc(=O)o[nH]3)CC2)c(C)n1  Human autotaxin enzyme (Homo sapiens)        > 8.00
3  O=C(Cn1c(CCCC(F)(F)F)nc(-c2ccc(C(F)(F)F)cc2)cc1=O)N1CCC(O)C1 (stereo not shown)  Human autotaxin enzyme (Homo sapiens)  6.00 to 7.00
4  CC(C)(O)CNC(=O)c1cccc(Cn2c(CCCC(F)(F)F)nc(-c3ccc(Cl)cc3)cc2=O)c1  Human autotaxin enzyme (Homo sapiens)  6.00 to 7.00
5  Cc1nc(-c2ccc(Cl)cc2NC(=O)C2CC2)cc(=O)n1CC(=O)N1CCC(C(N)=O)CC1  Human autotaxin enzyme (Homo sapiens)  7.00 to 8.00

Turning now to a further record.
Given the entry N#CCc1cc(OC(F)(F)F)ccc1-c1cc(=O)n(CC(=O)NC2(C#N)CC2)c(CCCC(F)(F)F)n1 , report its measured pIC50.
7.00 to 8.00
